system: human Factor 11 mRNA; assay: Dose-dependent inhibition of human Factor 11 in HepG2 cells, lipofectin 2.34-75 nM (Example 5); type: cell-based; conditions: 18.75 nM, ~16 hours
ENDPOINT: percent inhibition of human Factor 11 mRNA relative to untreated control cells

SUBSTANCE: 416858 (antisense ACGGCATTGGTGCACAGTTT; 5-10-5 gapmer, further chemistry not given here) [compound 416858]
ASSAY_RESULT: 61%
//
SUBSTANCE: 416864 (antisense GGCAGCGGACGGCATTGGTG; 5-10-5 gapmer, further chemistry not given here) [compound 416864]
ASSAY_RESULT: 65%
//
SUBSTANCE: 416838 (antisense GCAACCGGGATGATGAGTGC; 5-10-5 gapmer, further chemistry not given here) [compound 416838]
ASSAY_RESULT: 63%
//
SUBSTANCE: 416892 (antisense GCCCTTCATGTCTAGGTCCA; 3-14-3 chimeric gapmer, further chemistry not given here) [compound 416892]
ASSAY_RESULT: 70%
//
SUBSTANCE: 417002 (antisense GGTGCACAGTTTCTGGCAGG; 2-13-5 gapmer chemistry, further chemistry not given here) [compound 417002]
ASSAY_RESULT: 61%
//
SUBSTANCE: 417003 (antisense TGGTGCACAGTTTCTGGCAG; 2-13-5 gapmer chemistry, further chemistry not given here) [compound 417003]
ASSAY_RESULT: 64%
